growth overview
test system: NCI-H23 lung; test: NCI-60 one-dose screen, 48 h (100 = growth as untreated, 0 = no growth, -100 = all killed); conditions: 10 µM unless noted
About 83,000 compounds went through this panel and 20% of them were active in at least one assay; those are over-represented in the sample as a whole.
Value expressed in %; do not type the unit.

>>> df
                                        smi  measured_parameter  reported_result
0  COc1ccc(-c2nnc(-c3ccc4c(c3)nc(-c3ccncc3)n4C3CCCCC3)o2)cc1              growth             72.8
1  CCNc1nc(-c2ccc(Cl)c(OC)c2)c(-c2ccnc(NCCCNS(=O)(=O)c3ccc(Cl)cc3)n2)s1              growth             83.7
2  Nc1c(C(=O)Nc2ccncc2)sc2nc3c(cc12)CCCCCC3              growth             88.6

**Q:** # growth lookup, item COc1ccc(-c2nc3c(c(-c4ccccc4)nn3-c3ccccc3)c(-c3ccc(N4CCOCC4)cc3)c2C#N)cc1
**A:** 94

**Q:** Same question for COc1ccc2nc(NC(=O)CSc3nnc4n3S(=O)(=O)c3ccccc3N4C)sc2c1 please.
**A:** 94.9

**Q:** Same question for O=[N+]([O-])c1ccc(S(=O)(=O)N2CCN(C3=NS(=O)(=O)c4ccccc4N3c3ccccc3)CC2)cc1 please.
**A:** 87.2

**Q:** Same question for CC1=C(Nc2ccc(N3CCN(C)CC3)cc2)C(=O)c2cncnc2C1=O please.
**A:** 72.6

###

tested on: NCI-H522 lung; experiment: NCI-60 one-dose screen, 48 h; details: 10 µM unless noted
Compounds without any hit were thinned out: in the full panel of roughly 83,000, 20% have a hit. Activity calls are given as the source filed them. The calls were made as follows: active = growth percent below 10; inactive = the rest.
Respond using exactly one of the listed classes: label 1 (active), label 0 (inactive)

Check out these entries, answers already filled in.
compound	assigned.label
N#C/C(=C\c1ccc2ccccc2c1)c1cc2ccccc2[nH]1	label 1
COC(=O)[C@]1(C)CCC[C@]2(C)[C@H]3C[C@H]4C(C(C)C)=C[C@]3(CC[C@H]21)[C@H]1[C@@H]4[C@@H](OCCC#N)CC[C@@H]1OCCC#N	label 0
Cc1ccc(-c2nc(N3CCNCC3)c3oc(-c4ccccc4)nc3n2)cc1	label 1
O=C1Nc2ccc(Br)cc2/C1=N/c1n[nH]c(=S)s1	label 0
COc1cc(CNC(=O)/C=C/C=C/c2ccc3c(c2)OCO3)ccc1OCc1cn(-c2ccc(C)c(C)c2)nn1	label 0

**Q:** Could you please tell me the result logged for Cc1ccc(C(C(N)=O)C(C(N)=O)c2ccccc2)cc1 (stereo unspecified) in this assay?
**A:** label 0

**Q:** Same question for Cc1ccccc1/C=C1\CN(C(=O)OC(C)(C)C)C/C(=C\c2ccccc2C)C1=O please.
**A:** label 0

**Q:** Same question for COc1cc2oc(-c3cccc(NC(=O)c4cccc(Br)c4)c3)cc(=O)c2c(OC)c1OC please.
**A:** label 0

**Q:** Same question for COc1cc(N2C(=O)[C@H](O)C2c2ccc(SC)cc2)cc(OC)c1OC (stereo partly specified) please.
**A:** label 1

**Q:** Same question for N#CCSc1nnc2n(Cc3ccccc3)c(=O)c3c4c(sc3n12)CCCC4 please.
**A:** label 0

**Q:** Same question for O=C1c2cccc(NCCN=Cc3cc(O)ccc3O)c2C(=O)c2c(NCCN=Cc3cc(O)ccc3O)cccc21 please.
**A:** label 1

**Q:** Same question for CCCCCCC1(C)NCCO1 (stereo unspecified) please.
**A:** label 0

**Q:** Same question for COc1ccc(-c2cc(-c3ccc(Cl)cc3)c(C#N)c(=O)n2CCCCC(=O)Nc2ccccc2N)cc1 please.
**A:** label 0

**Q:** Same question for COC1C[C@H](O[C@@H]2C[C@H](O[C@@H]3C[C@H](O[C@@H]4C(=O)c5c(cc6cc(O[C@H]7C[C@@H](O[C@H]8C[C@@H](O)[C@H](O)C(C)O8)[C@H](O)C(C)O7)c(C)c(O)c6c5O)C[C@H]4C(OC)C(=O)[C@@H](O)[C@@H](C)O)OC(C)[C@H]3O)OC(C)[C@@H]2O)OC(C)[C@@H]1O (stereo partly specified) please.
**A:** label 1

**Q:** Same question for C#CCOc1ccc2ncnc(Nc3cccc(NC(=O)C=C)c3)c2c1 please.
**A:** label 0

**Q:** Same question for N#Cc1c(NC(=O)c2ccccc2)sc2c1CCC(=O)C2 please.
**A:** label 1

**Q:** Same question for O=C(/C=C/c1ccc(Cl)cc1)c1cccc(Nc2nc(Nc3ccccc3)nc(Nc3ccccc3)n2)c1 please.
**A:** label 0

**Q:** Same question for CCOC(=O)c1c(C)c2c(n1C)CSc1cc(C(=O)c3ccccc3)c(=O)[nH]c1-2 please.
**A:** label 0

**Q:** Same question for O=C1c2c(c3c4ccc(Br)cc4oc3c3[nH]c4ccccc4c23)C(=O)N1O please.
**A:** label 1

**Q:** Same question for O=C(CCC(=O)N/N=C/c1ccccc1O)N/N=C/c1ccccc1O please.
**A:** label 0

**Q:** Same question for COc1ccc(/C(C)=C(/c2ccc(OCCCN(C)C)cc2)c2ccc(OC(=O)Cc3ccccc3)cc2)cc1 please.
**A:** label 0
